// provenance: paper PMC7277860

assayProtocol: Cytotoxicity assay (MTT)
Assay type: cell-based
testSettings: MCF-7 human breast AC
quantityKind: IC50 at 5 days (nM)
Reply with just the number (in nM).

[Q] Bench note: what IC50 at 5 days did C/C(=C\c1csc(C)n1)[C@@H]1C[C@@H]2O[C@]2(C)CCC[C@H](C)[C@H](O)[C@@H](C)C(=O)C(C)(C)[C@@H](O)CC(=O)O1 [epothilone B, reference compound] show?
[A] 0.12

* * *

Tested on: L929 (mouse fibroblasts)
assayProtocol: Cytotoxicity assay (MTT)
Type: cell-based
testSettings: 5 days, read-out: Cytotoxicity (IC50)
quantityKind: IC50 (µM)
Reply with just the number (in µM).

[Q] Bench note: what IC50 did COc1cccc2c3c(ccc12)-c1ccc(O)c2c(OC)ccc-3c12 [Compound 3, viridistratin C] show?
[A] 61

* * *

assayProtocol: Cytotoxicity assay (MTT)
Assay type: cell-based, human
testSettings: A549 human lung carcinoma, 5 days
quantityKind: pIC50
pIC50 here is simply -log10 of the concentration when that concentration is written in mol/L.

[Q] Bench note: what pIC50 did O=C1C[C@H]2C(=C3CCC(=O)c4c(O)ccc2c43)c2cccc(O)c21 show?
[A] 4.77

* * *

Tested on: Pseudomonas aeruginosa
assayProtocol: MIC serial dilution assay
Format: cell-based
testSettings: Pseudomonas aeruginosa PA14; overnight, 37 °C; reference gentamicin 0.1 mg/mL; read-out: Minimum Inhibitory Concentration (MIC)
# MIC per entry

Please review the following examples before continuing.
[
  {
    "compound": "Oc1cccc2c3c(ccc12)-c1ccc(O)c2c(O)ccc-3c12 [Compound 1, viridistratin A]",
    "MIC": "> 66.7 µg/mL"
  },
  {
    "compound": "COc1cccc2c3c(ccc12)-c1ccc(O)c2c(O)ccc-3c12 [Compound 2, viridistratin B]",
    "MIC": "> 66.7 µg/mL"
  },
  {
    "compound": "CNC(C)C1CCC(N)C(OC2C(N)CC(N)C(OC3OCC(C)(O)C(NC)C3O)C2O)O1 (stereo not drawn) [gentamicin, reference compound]",
    "MIC": "0.4 µg/mL"
  },
  {
    "compound": "O=C1CCC(=O)c2c1c(O)cc1c2-c2ccc(O)c3c(O)ccc-1c23 [Compound 5, truncatone C]",
    "MIC": "> 66.7 µg/mL"
  },
  {
    "compound": "O=C1C[C@H]2C(=C3CCC(=O)c4c(O)ccc2c43)c2cccc(O)c21 [Compound 4, truncatone A]",
    "MIC": "> 66.7 µg/mL"
  }
]

As a next step, examine the compound that follows.
[Q] Bench note: what MIC did COc1cccc2c3c(ccc12)-c1ccc(O)c2c(OC)ccc-3c12 [Compound 3, viridistratin C] show?
[A] > 66.7 µg/mL

* * *

assayProtocol: Cytotoxicity assay (MTT)
Assay type: cell-based, human
testSettings: A431 human squamous AC
quantityKind: IC50 at 5 days (nM)
Reply with just the number (in nM).

[Q] Bench note: what IC50 at 5 days did C/C(=C\c1csc(C)n1)[C@@H]1C[C@@H]2O[C@]2(C)CCC[C@H](C)[C@H](O)[C@@H](C)C(=O)C(C)(C)[C@@H](O)CC(=O)O1 [epothilone B, reference compound] show?
[A] 0.05

* * *

# IC50 at 5 days per entry
assayProtocol: Cytotoxicity assay (MTT)
Format: cell-based
testSettings: human, KB 3.1 human endocervical adenocarcinoma cells
Reply with just the number (in µM).

Please review the following examples before continuing.
[
  {
    "moleculeSmiles": "Oc1cccc2c3c(ccc12)-c1ccc(O)c2c(O)ccc-3c12",
    "unitLabel": "µM",
    "IC50 at 5 days": 28.3
  },
  {
    "moleculeSmiles": "O=C1CCC(=O)c2c1c(O)cc1c2-c2ccc(O)c3c(O)ccc-1c23",
    "unitLabel": "µM",
    "IC50 at 5 days": 30.1
  }
]

As a next step, examine the compound that follows.
[Q] Bench note: what IC50 at 5 days did COc1cccc2c3c(ccc12)-c1ccc(O)c2c(O)ccc-3c12 show?
[A] 17.2

* * *

System: Micrococcus luteus
# MIC per entry

[Q] Bench note: what MIC did O=C1CCC(=O)c2c1c(O)cc1c2-c2ccc(O)c3c(O)ccc-1c23 show?
[A] 16.7 µg/mL

[Q] Bench note: what MIC did O=C1C[C@H]2C(=C3CCC(=O)c4c(O)ccc2c43)c2cccc(O)c21 show?
[A] 16.7 µg/mL

[Q] Bench note: what MIC did COc1cccc2c3c(ccc12)-c1ccc(O)c2c(O)ccc-3c12 show?
[A] 8.3 µg/mL

[Q] Bench note: what MIC did Oc1cccc2c3c(ccc12)-c1ccc(O)c2c(O)ccc-3c12 show?
[A] 16.7 µg/mL

[Q] Bench note: what MIC did CN(C)[C@@H]1C(O)=C(C(N)=O)C(=O)[C@@]2(O)C(O)=C3C(=O)c4c(O)cccc4[C@@](C)(O)[C@H]3[C@H](O)[C@@H]12 [oxytetracycline, reference compound] show?
[A] 0.8 µg/mL

* * *

assayProtocol: Cytotoxicity assay (MTT)
Type: cell-based
testSettings: PC-3 human prostate AC, 5 days
quantityKind: IC50 (µM)
Reply with just the number (in µM).

[Q] Bench note: what IC50 did O=C1C[C@H]2C(=C3CCC(=O)c4c(O)ccc2c43)c2cccc(O)c21 show?
[A] 44

* * *

# IC50 at 5 days per entry
assayProtocol: Cytotoxicity assay (MTT)
Assay type: cell-based
testSettings: PC-3 human prostate adenocarcinoma cells, PC-3 human prostate AC
Protocol: Compounds 1−5 were dissolved as described in the previous section. […] After incubating the cell lines with a serial dilution of the test compounds (final range: 37 to 0.6 × 10^−3 µg/mL) for five days, the cells were dyed using 3-(4,5-dimethyl-2-thiazolyl)-2,5-diphenyl-2H-tetrazolium bromide (MTT), which is only converted to its purple formazan derivative by living cells. […] For this, the absorption at 595 nm was measured using a microplate reader to calculate the percentage of cell viability. […]
Reply with just the number (in µM).

Please review the following examples before continuing.
[
  {
    "moleculeSmiles": "COc1cccc2c3c(ccc12)-c1ccc(O)c2c(O)ccc-3c12",
    "IC50 at 5 days (µM)": 9.9
  },
  {
    "moleculeSmiles": "O=C1CCC(=O)c2c1c(O)cc1c2-c2ccc(O)c3c(O)ccc-1c23",
    "IC50 at 5 days (µM)": 25.6
  }
]

As a next step, examine the compound that follows.
[Q] Bench note: what IC50 at 5 days did Oc1cccc2c3c(ccc12)-c1ccc(O)c2c(O)ccc-3c12 show?
[A] 23.7

* * *

assayProtocol: Cytotoxicity assay (MTT)
Format: cell-based, human
testSettings: A431 human squamous AC, 5 days
Experimental: Compounds 1−5 were dissolved as described in the previous section. […] After incubating the cell lines with a serial dilution of the test compounds (final range: 37 to 0.6 × 10^−3 µg/mL) for five days, the cells were dyed using 3-(4,5-dimethyl-2-thiazolyl)-2,5-diphenyl-2H-tetrazolium bromide (MTT), which is only converted to its purple formazan derivative by living cells. […] For this, the absorption at 595 nm was measured using a microplate reader to calculate the percentage of cell viability. […]
quantityKind: pIC50
pIC50 here is simply -log10 of the concentration when that concentration is written in mol/L.

[Q] Bench note: what pIC50 did O=C1C[C@H]2C(=C3CCC(=O)c4c(O)ccc2c43)c2cccc(O)c21 [Compound 4, truncatone A] show?
[A] 5.24

* * *

assayProtocol: Cytotoxicity assay (MTT)
Type: cell-based
testSettings: L929 mouse fibroblasts
quantityKind: IC50 at 5 days (nM)
Reply with just the number (in nM).

[Q] Bench note: what IC50 at 5 days did C/C(=C\c1csc(C)n1)[C@@H]1C[C@@H]2O[C@]2(C)CCC[C@H](C)[C@H](O)[C@@H](C)C(=O)C(C)(C)[C@@H](O)CC(=O)O1 [epothilone B, reference compound] show?
[A] 0.06

* * *

assayProtocol: Cytotoxicity assay (MTT)
Format: cell-based
testSettings: mouse, L929 mouse fibroblast cells, L929 mouse fibroblasts
quantityKind: IC50 at 5 days (µM)
Reply with just the number (in µM).

[
  {
    "moleculeSmiles": "O=C1CCC(=O)c2c1c(O)cc1c2-c2ccc(O)c3c(O)ccc-1c23",
    "IC50 at 5 days, µM": 16.3
  },
  {
    "moleculeSmiles": "Oc1cccc2c3c(ccc12)-c1ccc(O)c2c(O)ccc-3c12",
    "IC50 at 5 days, µM": 12.7
  }
]

[Q] Bench note: what IC50 at 5 days did COc1cccc2c3c(ccc12)-c1ccc(O)c2c(O)ccc-3c12 show?
[A] 17.2

* * *

Tested on: KB 3.1 (human endocervical adenocarcinoma)
assayProtocol: Cytotoxicity assay (MTT)
Assay type: cell-based
testSettings: 5 days
quantityKind: pIC50
pIC50 here is simply -log10 of the concentration when that concentration is written in mol/L.

[Q] Bench note: what pIC50 did COc1cccc2c3c(ccc12)-c1ccc(O)c2c(OC)ccc-3c12 show?
[A] 4.07

* * *

assayProtocol: Cytotoxicity assay (MTT)
Type: cell-based
testSettings: KB 3.1 human endocervical adenocarcinoma, 5 days
quantityKind: IC50 (µM)
Reply with just the number (in µM).

[Q] Bench note: what IC50 did O=C1C[C@H]2C(=C3CCC(=O)c4c(O)ccc2c43)c2cccc(O)c21 show?
[A] 44
